The reported numbers originate from paper PMC10544575.

- Target System: CYP3A4 (Homo sapiens)
- Method Notes: IC50-shift experiment, CYP3A4 in HLMs
- Type: in vitro ADME
- Design: 0.20 mg/mL HLMs or 0.20 mg/mL RLMs; from tissue; host or cells: human liver microsomes
- Reported Conditions: human, human liver microsomes, probe midazolam (4 μM), ratio IC50 (−) NADPH to IC50 (+) NADPH, read-out: IC50 fold shift

Compound	IC50 shift at 30 min
Cc1ccc(Sc2ccccc2N2CCNCC2)c(C)c1 [vortioxetine]	1.14

* * *

- Tested on: CYP2C-2
- Method Notes: IC50-shift experiment, CYP2C-2 in RLMs
- Type: in vitro ADME, rat
- Reported Conditions: rat, rat liver microsomes, probe losartan, CYP2C-2, 30 min preincubation with 1.0 mM NADPH, losartan 15 μM
Measured Metric: IC50 at 30 min (µM)

Structure String	Recorded Value
Cc1ccc(Sc2ccccc2N2CCNCC2)c(C)c1	37.5

* * *

- Target System: CYP2D6 (Homo sapiens, UniProt P10635)
- Sequence (P10635 whole entry): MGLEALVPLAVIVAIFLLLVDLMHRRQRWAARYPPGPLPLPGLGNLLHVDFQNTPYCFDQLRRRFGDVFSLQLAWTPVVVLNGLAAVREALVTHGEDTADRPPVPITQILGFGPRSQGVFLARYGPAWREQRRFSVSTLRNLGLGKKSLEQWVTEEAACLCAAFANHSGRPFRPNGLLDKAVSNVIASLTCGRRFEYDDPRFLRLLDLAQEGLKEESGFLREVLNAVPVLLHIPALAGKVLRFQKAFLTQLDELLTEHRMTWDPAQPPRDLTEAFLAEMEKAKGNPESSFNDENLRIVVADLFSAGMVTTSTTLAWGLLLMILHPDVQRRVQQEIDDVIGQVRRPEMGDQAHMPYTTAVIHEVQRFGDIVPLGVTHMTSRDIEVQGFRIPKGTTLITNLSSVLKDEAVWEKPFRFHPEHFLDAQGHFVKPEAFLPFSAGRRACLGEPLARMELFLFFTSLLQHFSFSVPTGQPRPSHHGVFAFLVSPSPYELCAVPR
- Method Notes: IC50 of vortioxetine on CYP2D6 (dextromethorphan) in HLMs
- Format: in vitro ADME
- Parameters: 0.20 mg/mL HLMs; from tissue; host or cells: human liver microsomes
- Reported Conditions: HLMs 0.20 mg/mL, dextromethorphan at Km, 37°C, 30 min, read-out: IC50

Structure String	Target System	Result Unit	IC50
Cc1ccc(Sc2ccccc2N2CCNCC2)c(C)c1	CYP2D6 (Homo sapiens, UniProt P10635)	µM	17.9

* * *

- Target System: CYP3A4 (Homo sapiens, UniProt P08684)
- Sequence (P08684 whole entry): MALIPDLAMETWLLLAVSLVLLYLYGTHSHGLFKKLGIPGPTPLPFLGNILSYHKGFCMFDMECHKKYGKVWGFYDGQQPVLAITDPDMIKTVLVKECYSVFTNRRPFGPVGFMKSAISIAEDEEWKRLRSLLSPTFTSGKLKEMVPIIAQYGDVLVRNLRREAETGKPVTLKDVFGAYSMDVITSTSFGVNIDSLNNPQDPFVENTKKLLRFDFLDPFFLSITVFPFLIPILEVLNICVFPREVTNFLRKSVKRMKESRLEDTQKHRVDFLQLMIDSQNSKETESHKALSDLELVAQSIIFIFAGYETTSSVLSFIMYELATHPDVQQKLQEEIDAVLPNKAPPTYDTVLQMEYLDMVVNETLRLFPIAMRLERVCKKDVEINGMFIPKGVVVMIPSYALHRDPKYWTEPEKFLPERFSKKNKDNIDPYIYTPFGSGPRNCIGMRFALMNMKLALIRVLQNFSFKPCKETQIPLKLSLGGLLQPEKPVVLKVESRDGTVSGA
- Method Notes: IC50 of vortioxetine on CYP3A4 (midazolam) in HLMs
- Format: in vitro ADME
- Parameters: 0.20 mg/mL HLMs; from tissue; host or cells: human liver microsomes
- Reported Conditions: HLMs 0.20 mg/mL, midazolam at Km, 37°C, 30 min, read-out: IC50
pIC50: −log10 of the molar value.

Structure String	pIC50
Cc1ccc(Sc2ccccc2N2CCNCC2)c(C)c1	5.03

* * *

- Tested on: CYP3A
- Method Notes: IC50 of vortioxetine on CYP3A (midazolam) in RLMs
- Type: in vitro ADME
- Reported Conditions: rat, rat liver microsomes, probe midazolam, inhibitory effect (strength judged by IC50), RLMs
Measured Metric: IC50 at 30 min

Structure String	Recorded Value
Cc1ccc(Sc2ccccc2N2CCNCC2)c(C)c1	> 10 µM

* * *

- Target System: CYP2C8 (Homo sapiens, UniProt P10632)
- Method Notes: IC50-shift experiment, CYP2C8 in HLMs
- Format: in vitro ADME
- Set-up: 0.20 mg/mL HLMs or 0.20 mg/mL RLMs; from tissue; host or cells: human liver microsomes
- Reported Conditions: 30 min preincubation with 1.0 mM NADPH, amodiaquine 3 μM
pIC50: −log10 of the molar value.
Measured Metric: pIC50

Structure String	Target System	Recorded Value
Cc1ccc(Sc2ccccc2N2CCNCC2)c(C)c1	CYP2C8 (Homo sapiens, UniProt P10632)	4.73

* * *

- System: CYP2B
- Method Notes: IC50-shift experiment, CYP2B in RLMs
- Format: in vitro ADME
- Reported Conditions: rat, rat liver microsomes, probe bupropion, ratio IC50 (−) NADPH to IC50 (+) NADPH, read-out: IC50 fold shift

Structure String	IC50 shift at 30 min
Cc1ccc(Sc2ccccc2N2CCNCC2)c(C)c1	1.91

* * *

- Tested on: CYP2B
- Method Notes: IC50 of vortioxetine on CYP2B (bupropion) in RLMs
- Format: in vitro ADME
- Reported Conditions: rat, rat liver microsomes, probe bupropion, inhibitory effect (strength judged by IC50), RLMs
Measured Metric: IC50 at 30 min

Structure String	Recorded Value
Cc1ccc(Sc2ccccc2N2CCNCC2)c(C)c1	1 to 10 µM

* * *

- Target System: CYP2B6 (Homo sapiens)
- Sequence (P20813 whole entry): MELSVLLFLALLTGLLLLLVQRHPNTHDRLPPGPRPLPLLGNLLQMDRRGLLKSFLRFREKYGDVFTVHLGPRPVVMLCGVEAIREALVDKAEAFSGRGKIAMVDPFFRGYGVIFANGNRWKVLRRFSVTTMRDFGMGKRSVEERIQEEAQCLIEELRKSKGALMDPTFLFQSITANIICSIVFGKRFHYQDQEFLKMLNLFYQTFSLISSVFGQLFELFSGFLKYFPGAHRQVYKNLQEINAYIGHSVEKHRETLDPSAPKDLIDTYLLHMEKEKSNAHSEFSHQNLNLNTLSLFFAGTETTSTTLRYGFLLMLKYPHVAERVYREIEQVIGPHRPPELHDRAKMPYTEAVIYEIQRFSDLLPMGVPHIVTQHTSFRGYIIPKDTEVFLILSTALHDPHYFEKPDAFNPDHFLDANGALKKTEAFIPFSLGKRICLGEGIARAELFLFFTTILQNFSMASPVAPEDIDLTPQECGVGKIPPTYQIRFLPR
- Method Notes: IC50 of vortioxetine on CYP2B6 (bupropion) in HLMs
- Assay type: in vitro ADME
- Parameters: 0.20 mg/mL HLMs; from tissue; host or cells: human liver microsomes
- Reported Conditions: HLMs 0.20 mg/mL, bupropion at Km, 37°C, 30 min, read-out: IC50
Measured Metric: IC50 (µM)

Molecule	Recorded Value
Cc1ccc(Sc2ccccc2N2CCNCC2)c(C)c1 [vortioxetine]	8.94

* * *

- Tested on: CYP2B
- Method Notes: IC50-shift experiment, CYP2B in RLMs
- Type: in vitro ADME
- Reported Conditions: rat, rat liver microsomes, probe bupropion, 30 min preincubation without NADPH, bupropion 20 μM

Structure String	IC50 at 30 min
Cc1ccc(Sc2ccccc2N2CCNCC2)c(C)c1	10.1 µM

* * *

- Tested on: CYP2C-2
- Method Notes: Reversible inhibition kinetics (Lineweaver-Burk), CYP2C-2 in RLMs
- Type: in vitro ADME, rat
- Reported Conditions: rat, rat liver microsomes, probe losartan
Measured Metric: Ki at 30 min (nM)

Structure String	Recorded Value
Cc1ccc(Sc2ccccc2N2CCNCC2)c(C)c1	120

* * *

- Target System: CYP3A4 (Homo sapiens)
- Method Notes: IC50-shift experiment, CYP3A4 in HLMs
- Assay type: in vitro ADME
- Parameters: 0.20 mg/mL HLMs or 0.20 mg/mL RLMs; from tissue; host or cells: human liver microsomes
- Reported Conditions: 30 min preincubation with 1.0 mM NADPH, midazolam 4 μM

Structure String	IC50, µM
Cc1ccc(Sc2ccccc2N2CCNCC2)c(C)c1	13.7

* * *

- Target System: CYP2C8 (Homo sapiens, UniProt P10632)
- Sequence (P10632 1-490): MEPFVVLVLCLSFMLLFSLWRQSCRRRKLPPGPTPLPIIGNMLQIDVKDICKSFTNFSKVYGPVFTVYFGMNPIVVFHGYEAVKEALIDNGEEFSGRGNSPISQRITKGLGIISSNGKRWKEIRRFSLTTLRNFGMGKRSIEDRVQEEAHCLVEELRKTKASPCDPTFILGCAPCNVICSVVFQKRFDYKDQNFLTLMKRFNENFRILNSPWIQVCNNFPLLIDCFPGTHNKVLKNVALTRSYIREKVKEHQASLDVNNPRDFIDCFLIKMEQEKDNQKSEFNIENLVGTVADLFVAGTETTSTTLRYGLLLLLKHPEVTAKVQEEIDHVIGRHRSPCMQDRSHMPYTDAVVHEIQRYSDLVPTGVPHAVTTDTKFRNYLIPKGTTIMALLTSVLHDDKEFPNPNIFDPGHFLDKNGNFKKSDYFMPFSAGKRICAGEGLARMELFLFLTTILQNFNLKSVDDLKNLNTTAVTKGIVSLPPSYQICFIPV
- Method Notes: IC50-shift experiment, CYP2C8 in HLMs
- Assay type: in vitro ADME
- Parameters: 0.20 mg/mL HLMs or 0.20 mg/mL RLMs; from tissue; host or cells: human liver microsomes
- Reported Conditions: 30 min preincubation without NADPH, amodiaquine 3 μM
pIC50: −log10 of the molar value.

Compound	pIC50
Cc1ccc(Sc2ccccc2N2CCNCC2)c(C)c1 [vortioxetine]	4.74

* * *

- Target System: CYP2C9 (Homo sapiens, UniProt P11712)
- Sequence (P11712 whole entry): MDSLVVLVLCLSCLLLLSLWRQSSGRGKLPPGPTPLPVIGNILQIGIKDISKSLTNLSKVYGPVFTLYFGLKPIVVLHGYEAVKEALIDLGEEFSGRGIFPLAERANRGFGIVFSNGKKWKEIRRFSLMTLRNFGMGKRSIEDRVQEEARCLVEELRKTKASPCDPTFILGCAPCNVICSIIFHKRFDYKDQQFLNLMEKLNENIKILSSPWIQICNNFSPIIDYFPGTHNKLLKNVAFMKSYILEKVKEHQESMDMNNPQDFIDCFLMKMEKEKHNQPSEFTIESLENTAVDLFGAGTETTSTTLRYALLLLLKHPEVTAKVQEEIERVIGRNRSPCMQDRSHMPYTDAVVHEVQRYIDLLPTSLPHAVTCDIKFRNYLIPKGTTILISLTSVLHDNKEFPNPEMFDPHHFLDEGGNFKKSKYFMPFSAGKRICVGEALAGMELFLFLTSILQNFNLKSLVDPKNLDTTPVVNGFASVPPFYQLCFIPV
- Method Notes: IC50 of vortioxetine on CYP2C9 (losartan) in HLMs
- Format: in vitro ADME
- Design: 0.20 mg/mL HLMs; from tissue; host or cells: human liver microsomes
- Reported Conditions: HLMs 0.20 mg/mL, losartan at Km, 37°C, 30 min, read-out: IC50
pIC50: −log10 of the molar value.

Structure String	Target System	pIC50
Cc1ccc(Sc2ccccc2N2CCNCC2)c(C)c1	CYP2C9 (Homo sapiens, UniProt P11712)	4.64

* * *

- Tested on: CYP2C-1
- Method Notes: IC50-shift experiment, CYP2C-1 in RLMs
- Format: in vitro ADME, rat
- Reported Conditions: rat, rat liver microsomes, probe amodiaquine, 30 min preincubation without NADPH, amodiaquine 20 μM
Measured Metric: IC50 at 30 min (µM)

Compound	Recorded Value
Cc1ccc(Sc2ccccc2N2CCNCC2)c(C)c1 [vortioxetine]	18.3

* * *

- Target System: CYP3A4 (Homo sapiens, UniProt P08684)
- Method Notes: IC50 of vortioxetine on CYP3A4 (midazolam) in HLMs
- Assay type: in vitro ADME
- Parameters: 0.20 mg/mL HLMs; from tissue; host or cells: human liver microsomes
- Reported Conditions: inhibitory effect (strength judged by IC50), HLMs
Measured Metric: IC50

Structure String	Target System	Recorded Value
Cc1ccc(Sc2ccccc2N2CCNCC2)c(C)c1	CYP3A4 (Homo sapiens, UniProt P08684)	1 to 10 µM

* * *

- Target System: CYP2C9 (Homo sapiens)
- Method Notes: IC50 of vortioxetine on CYP2C9 (losartan) in HLMs
- Type: in vitro ADME
- Design: 0.20 mg/mL HLMs; from tissue; host or cells: human liver microsomes
- Reported Conditions: inhibitory effect (strength judged by IC50), HLMs

Structure String	IC50
Cc1ccc(Sc2ccccc2N2CCNCC2)c(C)c1	> 10 µM
